system_under_test: KRAS G12V (Homo sapiens, UniProt P01116, G12V)
Sequence (P01116 1-188 isoform P01116-2 G12V): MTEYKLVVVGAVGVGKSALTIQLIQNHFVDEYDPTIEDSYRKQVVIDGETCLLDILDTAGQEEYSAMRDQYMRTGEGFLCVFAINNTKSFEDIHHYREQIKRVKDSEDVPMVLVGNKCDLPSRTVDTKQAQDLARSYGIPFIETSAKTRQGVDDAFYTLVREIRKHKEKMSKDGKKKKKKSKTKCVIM
measurement_description: KRAS_G12V GDP-GTP exchange assay (bodipy-GDP/GppNHp, SOS1)
Type: biochemical
condition_parameters: bodipy loaded KRAS G12V 2.5 nM, 3 hours incubation after GppNHp-SOS1; read-out: G12V_exchange (KRAS_G12V exchange assay IC50)
Protocol: The inhibitor potency of the exemplified compounds was determined in a fluorescence based guanine nucleotide exchange assay, which measures the exchange of bodipy-GDP (fluorescently labeled GDP) for GppNHp (Non-hydrolyzable GTP analog) to generate the active state of KRAS in the presence of SOS1 (guanine nucleotide exchange factor). […] Fluorescence intensities were measured on a PheraStar plate reader instrument (BMG Labtech) with excitation at 485 nm and emission at 520 nm. […]
pIC50: −log10 of the molar value.
The entries below are paired with their reported pIC50.

CNC(=O)c1cccc(-c2nc3c(F)c(-c4cccc(C)c4Cl)ncc3c3c2cc([C@H]2CCCN2C(=O)OC)n3[C@H]2[C@H]3CN[C@@H]2C3)n1 [Example 24] = 5.00 to 5.30

Briefly, pIC50 measured for Cc1cc2c(O[C@@H](C)[C@@H]3CCCN3C)nc3c(F)c(N4CCc5ccccc54)ncc3c2n1C1C2CNC1C2 (single isomer, unassigned) [Example 8b] : 5.30 to 6.00

Briefly, pIC50 measured for CN(C)C(=O)CCc1nc2c(N3CC(N(C)C)C3)nc3cc(-c4cc(O)cc5ccccc45)c(CCC#N)nc3c2n1C1C2CNC1C2 (single isomer, unassigned) [Example 17a] : 5.30 to 6.00

Briefly, pIC50 measured for C[C@H](Oc1nc2c(F)c(-c3cc(O)cc4ccccc34)ncc2c2c1nc(CCC(=O)N(C)C)n2C1C2CNC1C2)[C@@H]1CCCN1C (single isomer, unassigned) [Example 9a] : ≥ 7.00

Briefly, pIC50 measured for C[C@H](Oc1nc2c(F)c(-c3cccc4c3OCCC4)ncc2c2c1cc(C1CCc3cccc(=O)n31)n2[C@H]1[C@H]2CN[C@@H]1C2)[C@@H]1CCCN1C (single isomer, unassigned) [Example 20a] : ≥ 7.00

Briefly, pIC50 measured for COC(=O)CCc1cc2c(OC[C@@]34CCCN3C[C@H](F)C4)nc3c(F)c(-c4cc(O)cc5ccccc45)ncc3c2n1C1C2CNC1C2 (single isomer, unassigned) [Example 2b] : ≥ 7.00

Briefly, pIC50 measured for C[C@H](Oc1nc2c(F)c(-c3cccc4c3OCCC4)ncc2c2c1cc(-c1cn(C)nc1C(=O)N(C)C)n2[C@H]1[C@H]2CN[C@@H]1C2)[C@@H]1CCCN1C [Example 27] : ≥ 7.00

Briefly, pIC50 measured for C[C@H](Oc1nc2c(F)c(-c3cccc4c3OCCC4)ncc2c2c1cc(C1CC[C@H]3COC(=O)N13)n2[C@H]1[C@H]2CN[C@@H]1C2)[C@@H]1CCCN1C (single isomer, unassigned) [Example 26a] : ≥ 7.00

Briefly, pIC50 measured for COC(=O)N1CCC[C@@H]1c1cc2c(O[C@@H](C)[C@@H]3CCCN3C)nc3c(F)c(-c4cccc(Cl)c4Cl)ncc3c2n1[C@H]1[C@H]2CN[C@@H]1C2 [Example 23] : ≥ 7.00

Briefly, pIC50 measured for C[C@H](Oc1nc2c(F)c(-c3cc(O)cc4ccccc34)ncc2c2c1nc(CCC(=O)N(C)C)n2C1C2CNC1C2)[C@@H]1CCCN1C (single isomer, unassigned) [Example 9b] : ≥ 7.00

Briefly, pIC50 measured for Cc1nc2c(F)c(-c3cc(O)cc4ccccc34)ncc2c2c1cc(CN1CCOC1=O)n2[C@@H]1[C@@H]2CN[C@H]1C2 (relative stereo) [Example 5] : 5.30 to 6.00

Briefly, pIC50 measured for COC(=O)N1CCC[C@@H]1c1cc2c(N3CC(C)(N(C)C)C3)nc3c(F)c(-c4cccc(Cl)c4Cl)ncc3c2n1[C@H]1[C@H]2CN[C@@H]1C2 [Example 22] : 6.00 to 7.00
